TEST_SYSTEM: CYP2A6 (Homo sapiens, UniProt P11509)
Sequence (P11509 1-494): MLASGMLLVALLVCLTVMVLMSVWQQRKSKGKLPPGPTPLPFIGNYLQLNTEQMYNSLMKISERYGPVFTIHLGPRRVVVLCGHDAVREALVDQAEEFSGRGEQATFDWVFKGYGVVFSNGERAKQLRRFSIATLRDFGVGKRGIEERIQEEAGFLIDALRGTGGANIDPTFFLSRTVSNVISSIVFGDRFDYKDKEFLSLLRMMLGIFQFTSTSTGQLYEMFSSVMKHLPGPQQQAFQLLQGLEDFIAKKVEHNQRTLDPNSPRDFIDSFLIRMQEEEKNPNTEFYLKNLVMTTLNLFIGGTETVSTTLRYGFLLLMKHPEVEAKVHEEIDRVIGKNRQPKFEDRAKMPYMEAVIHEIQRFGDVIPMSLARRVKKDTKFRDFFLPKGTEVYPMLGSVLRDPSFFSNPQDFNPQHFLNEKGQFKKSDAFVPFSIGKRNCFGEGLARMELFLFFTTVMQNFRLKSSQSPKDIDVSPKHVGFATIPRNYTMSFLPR

| SMILES_RECORD | IC50 |
| --- | --- |
| CCC(=O)C(C[C@H](C)N(C)C)(c1ccccc1)c1ccccc1 | > 200 µM |
